- assay: log P by HPLC on a reversed-phase column (C 18), EEC Directive 79/831 Annex V.A8
- Format: physicochemical
- condition summary: neutral range, pH 7.8, 0.001 molar aqueous ammonium hydrogencarbonate/acetonitrile, 55° C.
reported metric: LOGP_NEUTRAL

compound: CCS(=O)(=O)c1c(-c2nc3cc(C(F)(F)F)ncc3n2C)nc2c(Cl)cccn12
LOGP_NEUTRAL: 2.50
//
compound: CCSc1c(-c2nc3cc(C(F)(F)F)ncc3n2C)nc2c(C(F)(F)F)cccn12
LOGP_NEUTRAL: 3.71
//
compound: CCSc1c(-c2nc3cc(C(F)(F)F)cnc3o2)nc2ccccn12
LOGP_NEUTRAL: 3.15
//
compound: CC[S+]([O-])c1c(-c2nc3cc(C(F)(F)F)ncc3n2C)nc2cc(C(F)(F)F)ccn12 (stereo not drawn)
LOGP_NEUTRAL: 3.25
//
compound: CCS(=O)(=O)c1c(-c2nc3cc(C(F)(F)F)ncc3n2C)nc2cc(C(F)(F)F)ccn12
LOGP_NEUTRAL: 2.98
//
compound: CCSc1c(-c2nc3cc(C(F)(F)F)ncc3n2C)nc2ccc(C)cn12
LOGP_NEUTRAL: 3.22
//
compound: CCSc1c(-c2nc3cc(C(F)(F)F)ncc3n2C)nc2c(Cl)cccn12
LOGP_NEUTRAL: 3.34
//
compound: CCS(=O)(=O)c1c(-c2nc3cc(C(F)(F)F)cnc3o2)nc2ccccn12
LOGP_NEUTRAL: 2.52
//
compound: CCS(=O)(=O)c1c(-c2nc3cc(C(F)(F)F)ncc3n2C)nc2ccc(Cl)cn12
LOGP_NEUTRAL: 2.61
//
compound: CC[S+]([O-])c1c(-c2nc3cc(C(F)(F)F)ncc3n2C)nc2c(C(F)(F)F)cccn12 (stereo not drawn)
LOGP_NEUTRAL: 3.21
//
compound: CCSc1c(-c2nc3cc(C(F)(F)F)ncc3n2C)nc2cc(C(F)(F)F)ccn12
LOGP_NEUTRAL: 3.80
//
compound: CCS(=O)(=O)c1c(-c2nc3cc(C(F)(F)F)ncc3n2C)nc2cc(Cl)ccn12
LOGP_NEUTRAL: 2.64
//
compound: CCS(=O)(=O)c1cccn2c(S(=O)(=O)CC)c(-c3nc4cc(C(F)(F)F)ncc4n3C)nc12
LOGP_NEUTRAL: 2.29
//
compound: CCSc1c(-c2nc3cc(C(F)(F)F)ncc3n2C)nc2ccc(C(F)(F)F)cn12
LOGP_NEUTRAL: 3.75
//
compound: CCS(=O)(=O)c1c(-c2nc3cc(C(F)(F)F)cnc3n2C)nc2ccccn12
LOGP_NEUTRAL: 2.49
//
compound: CC[S+]([O-])c1c(-c2nc3cc(C(F)(F)F)ncc3n2C)nc2ccc(Cl)cn12 (stereo not drawn)
LOGP_NEUTRAL: 2.83
//
compound: CCS(=O)(=O)c1c(-c2nc3cc(C(F)(F)F)ncc3n2C)nc2ccc(OC)cn12
LOGP_NEUTRAL: 2.37
//
compound: CC[S+]([O-])c1c(-c2nc3cc(C(F)(F)F)ncc3n2C)nc2cccc(C(F)(F)F)n12 (stereo not drawn)
LOGP_NEUTRAL: 2.30
//
compound: CCSc1c(-c2nc3cc(C(F)(F)F)cnc3n2C)nc2ccccn12
LOGP_NEUTRAL: 3.39
//
compound: CCSc1c(-c2nc3cc(C(F)(F)F)ncc3n2C)nc2ccccn12
LOGP_NEUTRAL: 2.75
//
compound: CCS(=O)(=O)c1c(-c2nc3cc(C(F)(F)F)ncc3n2C)nc2c(C(F)(F)F)cccn12
LOGP_NEUTRAL: 2.90
//
compound: CCS(=O)(=O)c1c(-c2nc3cc(C(F)(F)F)cnc3s2)nc2ccccn12
LOGP_NEUTRAL: 3.20
//
compound: CCS(=O)(=O)c1c(-c2nc3cc(C(F)(F)F)cnc3n2C)nc2ccc(C)cn12
LOGP_NEUTRAL: 2.78
//
compound: CCSc1cccn2c(SCC)c(-c3nc4cc(C(F)(F)F)ncc4n3C)nc12
LOGP_NEUTRAL: 3.93
//
compound: CCS(=O)(=O)c1c(-c2nc3cc(C(F)(F)F)ncc3n2C)nc2cccc(C(F)(F)F)n12
LOGP_NEUTRAL: 2.66
//
compound: CCS(=O)(=O)c1c(-c2nc3cc4c(cc3n2C)OC(F)(F)O4)nc2ccccn12
LOGP_NEUTRAL: 2.62
//
compound: CCS(=O)(=O)c1c(-c2nc3cc(C(F)(F)F)ncc3n2C)nc2ccc(C(F)(F)F)cn12
LOGP_NEUTRAL: 3.06

The measurements presented in this section are drawn from patent US10188108B2.
